- System: Digitaria ciliaris
- method.notes: Test Example 4: herbicidal effect test by stem and leaf treatment in upland field
- Type: in vivo
- measurement.parameters: Digitaria ciliaris; 120 g per 10 ares; sprayed seven days after sowing, upland soil; 14 days after application; read-out: weed inhibition rate
- Protocol: The present test was conducted in duplicate for each chemical concentration group, and the weed inhibition rate (%) was determined 14 days after chemical application using the following formula (Math. 1). [formula] Pots with an area of 36 cm^2 were filled with upland soil (alluvial loam), twenty seeds each of weeds of Digitaria ciliaris, Echinochloa crus-galli, and Amaranthus viridis were uniformly mixed with the top 1 cm layer of soil and the surface was lightly pressed down. […]
Please respond with reported inhibition at 1200 g/ha for every item in the list.

Would you mind giving inhibition at 1200 g/ha for every compound in the list below?
1. CC(C)[C@]12C[C@@H](OCc3cccc(Cl)c3)[C@](C)(C[C@@H]1Br)O2
2. Cc1ccccc1CO[C@@H]1C[C@]2(C(C)C)O[C@@]1(C)C[C@@H]2Cl
3. CC(C)[C@]12C[C@@H](OCc3c(F)cccc3F)[C@](C)(C[C@@H]1Cl)O2
4. Cc1ccc(CO[C@@H]2C[C@]3(C(C)C)O[C@@]2(C)C[C@@H]3Br)cc1
5. CC(C)[C@]12C[C@@H](OCc3cccs3)[C@](C)(C[C@@H]1I)O2
6. COc1ccccc1CO[C@@H]1C[C@]2(C(C)C)O[C@@]1(C)C[C@@H]2I
7. CC(C)[C@]12C[C@@H](OCc3ccsc3)[C@](C)(C[C@@H]1Cl)O2
8. C#CCO[C@@H]1C[C@]2(C)O[C@@]1(C(C)C)C[C@H]2OCc1ccccc1F

1. ≥ 80%
2. ≥ 80%
3. ≥ 80%
4. ≥ 80%
5. ≥ 80%
6. ≥ 80%
7. ≥ 80%
8. ≥ 80%

====

- System: Digitaria ciliaris
- method.notes: Test Example 4: herbicidal effect test by stem and leaf treatment in upland field
- Format: in vivo
- measurement.parameters: Digitaria ciliaris; 120 g per 10 ares; sprayed seven days after sowing, upland soil; 14 days after application; read-out: weed inhibition rate
measured.property: inhibition at 1200 g/ha

compound: Cc1cccc(F)c1CO[C@@H]1C[C@]2(C(C)C)O[C@@]1(C)CC2=O
measured.property: inhibition at 1200 g/ha
meas.value: ≥ 80%

Give measured inhibition at 1200 g/ha for every item shown.
1. CC(C)[C@@]12C[C@H](OCc3c(F)cccc3Br)[C@@](C)(C[C@H]1Br)O2
2. CC(C)C12C=CC(C)(O1)C(OCc1ccccn1)C2 (stereo not drawn)

1: ≥ 80%; 2: ≥ 80%
